Catalogue of binders with associated parental ratio
measured.target: CD28 (human) (UniProt P10747)
protocol.details: flow cytometry, cells expressing CD28
Note: the reply should be a number with no unit written.

| binder | attribute.measured | recorded.number |
| --- | --- | --- |
| variant CD80 K36G/K37Q/M38I/L40M (Fc fusion) VIHVTKEVKEVATLSCGHNVSVEELAQTRIYWQKEGQIVMTMMSGDMNIWPEYKNRTIFDITNNLSIVILALRPSDEGTYECVVLKYEKDAFKREHLAEVTLSVKADFPTPSISDFEIPTSNIRRIICSTSGGFPEPHLSWLENGEELNAINTTVSQDPETELYAVSSKLDFNMTTNHSFMCLIKYGHLRVNQTFNWNTTKQEHFPDN | parental ratio | 0.09 |
| variant CD80 A91G/F92L/F108L/I118V/T120S (Fc fusion) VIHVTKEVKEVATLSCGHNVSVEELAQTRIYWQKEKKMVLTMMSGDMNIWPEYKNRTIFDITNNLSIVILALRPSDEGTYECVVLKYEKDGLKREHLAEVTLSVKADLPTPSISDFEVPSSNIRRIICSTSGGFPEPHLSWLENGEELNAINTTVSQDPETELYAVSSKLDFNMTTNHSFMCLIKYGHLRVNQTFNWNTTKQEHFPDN | parental ratio | 0.53 |
| variant CD80 L70Q/A91G/T110A/I118V/T120S/T130A (Fc fusion) VIHVTKEVKEVATLSCGHNVSVEELAQTRIYWQKEKKMVLTMMSGDMNIWPEYKNRTIFDITNNLSIVIQALRPSDEGTYECVVLKYEKDGFKREHLAEVTLSVKADFPAPSISDFEVPSSNIRRIICSASGGFPEPHLSWLENGEELNAINTTVSQDPETELYAVSSKLDFNMTTNHSFMCLIKYGHLRVNQTFNWNTTKQEHFPDN | parental ratio | 0.09 |
| variant CD80 K54M/L70Q/A91G/Y164H (Fc fusion) VIHVTKEVKEVATLSCGHNVSVEELAQTRIYWQKEKKMVLTMMSGDMNIWPEYMNRTIFDITNNLSIVIQALRPSDEGTYECVVLKYEKDGFKREHLAEVTLSVKADFPTPSISDFEIPTSNIRRIICSTSGGFPEPHLSWLENGEELNAINTTVSQDPETELHAVSSKLDFNMTTNHSFMCLIKYGHLRVNQTFNWNTTKQEHFPDN | parental ratio | 0.71 |
| variant CD80 V4M/L70Q/A91G/I118V/T120S/T130A/K169E (Fc fusion) VIHMTKEVKEVATLSCGHNVSVEELAQTRIYWQKEKKMVLTMMSGDMNIWPEYKNRTIFDITNNLSIVIQALRPSDEGTYECVVLKYEKDGFKREHLAEVTLSVKADFPTPSISDFEVPSSNIRRIICSASGGFPEPHLSWLENGEELNAINTTVSQDPETELYAVSSELDFNMTTNHSFMCLIKYGHLRVNQTFNWNTTKQEHFPDN | parental ratio | 0.94 |

binder variant CD80 K37E/F59S/L70Q/A91G/T120S/T130A (Fc fusion) VIHVTKEVKEVATLSCGHNVSVEELAQTRIYWQKEKEMVLTMMSGDMNIWPEYKNRTISDITNNLSIVIQALRPSDEGTYECVVLKYEKDGFKREHLAEVTLSVKADFPTPSISDFEIPSSNIRRIICSASGGFPEPHLSWLENGEELNAINTTVSQDPETELYAVSSKLDFNMTTNHSFMCLIKYGHLRVNQTFNWNTTKQEHFPDN , parental ratio observed: 0.21
